test: Adsorption and distribution of labeled CMP-NANA in the rat; type: in vivo; conditions: im, Brain, 30 min, 20 mg/kg i.m., read-out: Radioactivity level

compound	tissue uptake at 0.5 h (%ID/g)
[3H]C(O)[C@@H](O)[C@@H](O)[C@@H]1O[C@](OP(=O)(O)OC[C@H]2O[C@@H](n3ccc(N)nc3=O)[C@H](O)[C@@H]2O)(C(=O)O)C[C@H](O)[C@H]1NC(C)=O (stereo partly shown) [[^-3 H]-labeled CMP--NANA]	6.2

====

test: Adsorption and distribution of labeled CMP-NANA in the rat; assay type: in vivo; conditions: im, Liver, 30 min, 20 mg/kg i.m., read-out: Radioactivity level

compound	tissue uptake at 0.5 h
[3H]C(O)[C@@H](O)[C@@H](O)[C@@H]1O[C@](OP(=O)(O)OC[C@H]2O[C@@H](n3ccc(N)nc3=O)[C@H](O)[C@@H]2O)(C(=O)O)C[C@H](O)[C@H]1NC(C)=O (stereo partly shown) [[^-3 H]-labeled CMP--NANA]	3.9 %ID/g

====

assay: Adsorption and distribution of labeled CMP-NANA in the rat; type: in vivo; details: im, Brain, 1 hr, 20 mg/kg i.m., read-out: Radioactivity level
quantityKind: tissue uptake at 1 h (%ID/g)

compound	unitOfMeasure	valueObserved
[3H]C(O)[C@@H](O)[C@@H](O)[C@@H]1O[C@](OP(=O)(O)OC[C@H]2O[C@@H](n3ccc(N)nc3=O)[C@H](O)[C@@H]2O)(C(=O)O)C[C@H](O)[C@H]1NC(C)=O (stereo partly shown) [[^-3 H]-labeled CMP--NANA]	%ID/g	7.8

====

assay: Adsorption and distribution of labeled CMP-NANA in the rat; format: in vivo; conditions: im, Brain, 2 hrs, 20 mg/kg i.m., read-out: Radioactivity level
quantityKind: tissue uptake at 2 h (%ID/g)

molecule	valueObserved
[3H]C(O)[C@@H](O)[C@@H](O)[C@@H]1O[C@](OP(=O)(O)OC[C@H]2O[C@@H](n3ccc(N)nc3=O)[C@H](O)[C@@H]2O)(C(=O)O)C[C@H](O)[C@H]1NC(C)=O (stereo partly shown) [[^-3 H]-labeled CMP--NANA]	4.9

====

assay: Adsorption and distribution of labeled CMP-NANA in the rat; format: in vivo; settings: im, Liver, 2 hrs, 20 mg/kg i.m., read-out: Radioactivity level
quantityKind: tissue uptake at 2 h (%ID/g)

compound	valueObserved
[3H]C(O)[C@@H](O)[C@@H](O)[C@@H]1O[C@](OP(=O)(O)OC[C@H]2O[C@@H](n3ccc(N)nc3=O)[C@H](O)[C@@H]2O)(C(=O)O)C[C@H](O)[C@H]1NC(C)=O (stereo partly shown) [[^-3 H]-labeled CMP--NANA]	2.8
